- test_name: Quantitative High-Throughput drug screen in 47 multiple myeloma cell lines against the NCATS MIPE library collection: KMS20_JCRB cell viability assay (AID 1918973); further: nearly all actives have a fitted effect of over 45% in size
- condition_notes: CellTiter-Glo ATP, 48 h; series mostly up to 45.8 µM
Results filed as inconclusive are left out. Active and inactive are the calls of the source. The call rests on the fitted dose curve; in most records, active means well fitted cell-killing curve with a large enough effect; inconclusive means small, poorly fitted or top-dose-only effect, or effect the other way; inactive means no such curve, though single readings can be large or run the other way.
Select the correct class. Options are true (1) for active, false (0) for inactive and nothing else.

Before answering, review these 6 worked examples.
O=C(C=Cc1ccc(/C=C/C(=O)Nc2ccc(C3=NCCN3)cc2)cc1)Nc1ccc(C2=NCCN2)cc1 = false (0)
COc1ccc(-c2ccc3c(N4CCOCC4)nc(N4C[C@@H](C)O[C@@H](C)C4)nc3n2)cc1CO = true (1)
NC(=O)c1ccc(-c2nc(-c3ccc4c(c3)OCO4)c(-c3ccccn3)[nH]2)cc1 = false (0)
Cn1cc(-c2ccc3nnc(C(F)(F)c4ccc5ncccc5c4)n3n2)cn1 = false (0)
Cc1ccc(N(CC2=NCCN2)c2cccc(O)c2)cc1 = false (0)
CC(C)(C)OC(=O)CN(Cc1ccc(Cl)cc1)Cc1ccc([N+](=O)[O-])s1 = false (0)

Let's switch to this compound now.
Identify the outcome logged in this assay for the compound shown: COc1ccc(-c2oc3cc(OC)ccc3c2C(=O)c2ccc(C#N)cc2)cc1
false (0)

---

- test_name: Quantitative High-Throughput drug screen in 47 multiple myeloma cell lines against the NCATS MIPE library collection: MM1S_ATCC cell viability assay (AID 1918980); further: potency means the concentration at half of the fitted maximal effect; nearly all actives have a fitted effect of over 45% in size
- condition_notes: MM1S myeloma viability, CellTiter-Glo ATP luminescence, 48 h; series mostly up to 45.8 µM
Records with an inconclusive call do not appear. Calls of active or inactive are those of the source. Calls follow the shape of the dose curve; as a rule, active = well fitted cell-killing curve with a large enough effect; inconclusive = small, poorly fitted or top-dose-only effect, or effect the other way; inactive = no such curve, though single readings can be large or run the other way.
# Lookup of reported Potency keyed by entry

CC[C@H](Nc1ncnc2nc[nH]c12)c1nc2cccc(F)c2c(=O)n1-c1ccccc1 = 0.118 µM (active)
CC(=O)Oc1ccccc1C(=O)O = 5.26 µM (active)
O=S(=O)(N=Cc1c(O)ccc2ccccc12)c1cccs1 = 0.0209 µM (active)
NCCCC(N)(C(=O)O)C(F)F (configuration not stated) = 0.105 µM (active)

What value of Potency has been reported for the following molecule? CCC(=O)N[C@H]1CC[C@H](C(=O)N(C)c2ccc(-c3nc4ccccc4o3)cc2)C1
5.26 µM (active)

What value of Potency has been reported for the following molecule? CC(C)(Sc1ccc(CCN(CCCCC2CCCCC2)C(=O)NC2CCCCC2)cc1)C(=O)O
4.18 µM (active)

What value of Potency has been reported for the following molecule? CCC(C)N(C)C(=O)c1cc2ccccc2c(-c2ccccc2Cl)n1 (configuration not stated)
23.5 µM (active)

---

- test_name: Quantitative High-Throughput drug screen in 47 multiple myeloma cell lines against the NCATS MIPE library collection: EJM_DSMZ cell viability assay (AID 1918926; further: nearly all actives have a fitted effect of over 30% in size)
- condition_notes: EJM myeloma cell viability, CellTiter-Glo ATP, 48 h; series mostly up to 45.8 µM
Records with an inconclusive call do not appear. Activity calls are given as the source filed them. Calls come from the whole dose curve; as a rule, active = well fitted cell-killing curve with a large enough effect; inconclusive = small, poorly fitted or top-dose-only effect, or effect the other way; inactive = no such curve, though single readings can be large or run the other way.
Select the correct class. Options are 1 (active), -1 (inactive) and nothing else.

Before answering, review these 10 worked examples.
O=c1n(CCCN2CCN(c3cccc(Cl)c3)CC2)nc2ccccn12 = -1
CCOC(=O)C1=C[C@]2(CC)CCCN3CCc4c(n1c1ccccc41)[C@@H]32 = 1
O=C(Nc1ccc(F)c(C(F)(F)F)c1)Nc1nnc(-c2ccncc2)s1 = 1
CNC[C@H](O)c1cccc(O)c1 = -1
CN1CCN(CCCN2c3ccccc3Sc3ccc(C(F)(F)F)cc32)CC1 = -1
COc1ccc2c3n(c(=NC(=O)c4cccnc4)nc2c1OC)CCN3 = 1
O=C(NOC[C@H](O)CO)c1ccc(F)c(F)c1Nc1ccc(I)cc1F = -1
CC(C)(C)NCC(O)c1ccc(O)c(CO)c1 (stereo not given) = -1
CN(C)c1ccc(Nc2nc(N)n(C(=O)c3c(F)cccc3F)n2)cc1 = 1
Cc1[nH]c(=O)c(C#N)cc1-c1ccc2nccn2c1 = -1

Identify the outcome logged in this assay for the molecule shown: NCCCC(N)(C(=O)O)C(F)F (stereo not given)
-1

Identify the outcome logged in this assay for the molecule shown: CCC(C)(C)C(=O)O[C@H]1C[C@@H](C)C=C2C=C[C@H](C)[C@H](CC[C@@H]3C[C@@H](O)CC(=O)O3)[C@H]21
-1

Identify the outcome logged in this assay for the molecule shown: Nc1nc2[nH]cc(CCc3ccc(C(=O)N[C@@H](CCC(=O)O)C(=O)O)cc3)c2c(=O)[nH]1
-1

Identify the outcome logged in this assay for the molecule shown: CCn1cc(C(=O)O)c(=O)c2cc(F)c(N3CCNC(C)C3)c(F)c21 (stereo not given)
-1

Identify the outcome logged in this assay for the molecule shown: CC(C)OC(=O)C1=CN(C(=O)c2ccc(F)c(F)c2)CC(C)(C)c2c1[nH]c1ccccc21
-1
